Source: paper PMC11228576

target: bovine erythrocyte CA-II (Bos taurus, UniProt P00921); test: CA-II in vitro inhibition assay; format: biochemical; conditions: read-out: IC50 ± μM (SEM); bovine CA-II; triplicate, SEM
Sequence (P00921 whole entry): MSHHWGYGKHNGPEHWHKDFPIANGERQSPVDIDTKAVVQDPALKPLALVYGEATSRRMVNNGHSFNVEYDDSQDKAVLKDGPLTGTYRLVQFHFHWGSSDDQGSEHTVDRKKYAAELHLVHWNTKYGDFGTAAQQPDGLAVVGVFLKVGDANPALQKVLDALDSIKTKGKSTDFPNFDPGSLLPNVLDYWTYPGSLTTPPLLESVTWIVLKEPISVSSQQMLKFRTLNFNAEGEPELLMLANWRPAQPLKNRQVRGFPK
Exercise: state measured IC50 for each of the compounds provided.

Previously resolved entries follow.
compound="Cc1cccc(C)c1-n1c(-c2ccc([N+](=O)[O-])cc2)cs/c1=N/N=C/c1ccc(N2CCOCC2)cc1 [Compound 26]" recorded_metric=IC50 value="17.2 µM"
compound="C(=N\\N=c1\\scc(-c2ccccc2)n1-c1cccc2ccccc12)/c1ccc(N2CCOCC2)cc1 [Compound 10]" recorded_metric=IC50 value="39.7 µM"
compound="Clc1ccc(-c2cs/c(=N/N=C/c3ccc(N4CCOCC4)cc3)n2CCc2ccccc2)cc1 [Compound 15]" recorded_metric=IC50 value="49.3 µM"
compound="Brc1ccc(-c2cs/c(=N/N=C/c3ccc(N4CCOCC4)cc3)n2-c2ccccc2)cc1 [Compound 27]" recorded_metric=IC50 value="23.8 µM"
compound="C(=N\\N=c1\\scc(-c2ccccc2)n1CCc1ccccc1)/c1ccc(N2CCOCC2)cc1 [Compound 6]" recorded_metric=IC50 value="34.6 µM"

Kindly give each listed record's IC50.
1. Cc1ccc(Cn2c(-c3ccc(Cl)cc3)cs/c2=N/N=C/c2ccc(N3CCOCC3)cc2)cc1 [Compound 16]
2. COc1ccc(-n2c(-c3ccc(Cl)cc3)cs/c2=N/N=C/c2ccc(N3CCOCC3)cc2)cc1 [Compound 19]
3. C(=N\N=c1\scc(-c2ccccc2)n1Cc1ccccc1)/c1ccc(N2CCOCC2)cc1 [Compound 5]

56.3 µM
48.2 µM
26.5 µM
